EXPERIMENTAL TARGET: T1, Homo sapiens factor Bb protein (human, UniProt P00751 260-764)
T1 construct: Bought from CompTech (A155); also called complement factor Bb; human factor Bb
T1 sequence (P00751 260-764 limits assumed): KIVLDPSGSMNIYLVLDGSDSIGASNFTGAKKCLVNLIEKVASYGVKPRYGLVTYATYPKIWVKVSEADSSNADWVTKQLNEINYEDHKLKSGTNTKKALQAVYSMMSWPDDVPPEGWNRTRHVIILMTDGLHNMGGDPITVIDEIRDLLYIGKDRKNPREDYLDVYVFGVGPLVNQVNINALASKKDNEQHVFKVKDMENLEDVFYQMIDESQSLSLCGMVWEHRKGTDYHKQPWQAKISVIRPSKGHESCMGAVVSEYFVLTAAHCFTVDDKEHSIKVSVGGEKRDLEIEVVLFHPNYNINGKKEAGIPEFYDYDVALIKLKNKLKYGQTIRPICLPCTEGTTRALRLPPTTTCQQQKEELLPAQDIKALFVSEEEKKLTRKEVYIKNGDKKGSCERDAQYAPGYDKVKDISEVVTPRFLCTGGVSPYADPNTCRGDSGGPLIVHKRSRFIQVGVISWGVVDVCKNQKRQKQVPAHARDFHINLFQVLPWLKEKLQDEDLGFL
ASSAY PROTOCOL: SPR single cycle kinetics, IgG on Protein A chip, factor Bb analyte
OBSERVATION TYPE: koff (s⁻¹)
Just the number please, in s⁻¹, no unit attached.

VH1/Vκ0 (control) (antibody, V domains shown) VH: EVQLVESGGGLVKPGGSLRLSCAASGFTFSNYAMSWVRQAPGKGLEWVATISNRGSYTYYPDSVKGRFTISRDNAKNSLYLQMSSLRSEDTALYYCARERPMDYWGQGTSVTVSS VL: DIVMTQSHKFMSTSVGDRVSITCKASQDVGTAVAWYQQKPGQSPKLLIYWASTRHTGVPDRFTGSGSGTDFTLTITNVQSEDLAVYFCHQHSSNPLTFGAGTKLELK ... 0.00116

Shifting focus to the binder that follows.
For VH0/Vκ0 (Chimeric) (antibody, V domains shown, also called chimeric antibody) VH: EVQLVESGGALVKPGGSLKLSCAASGFTFSNYAMSWVRQTPEKRLEWVATISNRGSYTYYPDSVKGRFTISRDNAKNTLYLQMSSLRSEDTALYYCARERPMDYWGQGTSVTVSS VL: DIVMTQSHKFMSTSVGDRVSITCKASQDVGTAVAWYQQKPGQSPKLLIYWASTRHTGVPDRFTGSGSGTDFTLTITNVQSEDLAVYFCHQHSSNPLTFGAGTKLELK , write its koff.
0.00103
